Recorded measurements of yeast fitness, one per entry
B1: tRNA (parent)
chain: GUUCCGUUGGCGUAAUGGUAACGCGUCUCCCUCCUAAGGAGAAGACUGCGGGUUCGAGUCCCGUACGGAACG

# Variants of: B1
# Experimental protocol: yeast fitness relative to wild type (ratio to wild type); higher = fitter; tRNA-Arg(CCU), competitive growth, 37 C, YPD
Variants at the floor of the assay were thinned out.

{"Variant description": "C49G G68C A70C", "yeast fitness": 0.623}
{"Variant description": "A21U A40C A42U C49U G50C C66U", "yeast fitness": 0.578}
{"Variant description": "A21G A45C A69U", "yeast fitness": 0.762}
{"Variant description": "A37U G52A U54C G56C A57G", "yeast fitness": "≤ 0.5"}
{"Variant description": "U3C A21U A37G G44A G63A", "yeast fitness": "≤ 0.5"}
{"Variant description": "C11U C27G C31G G39C G56A C61A A69G", "yeast fitness": 0.641}
{"Variant description": "U16A G25A C49A", "yeast fitness": "≤ 0.5"}
{"Variant description": "C11U C24G C33A A40C A69C", "yeast fitness": 0.72}
{"Variant description": "C27U C46U G48A G68A", "yeast fitness": 0.635}
{"Variant description": "U28G A42C A57C", "yeast fitness": 0.627}
{"Variant description": "C4U C5G C29G C31G A37C G63A", "yeast fitness": 0.542}
{"Variant description": "G9A C27A A42C C49G G51C C55G C66U", "yeast fitness": "≤ 0.5"}
{"Variant description": "A40G G48A", "yeast fitness": 1.01}
{"Variant description": "U16A G18C G48C", "yeast fitness": 0.646}
{"Variant description": "G12A C55A", "yeast fitness": 0.6}
{"Variant description": "U3C G17A C30G C61G", "yeast fitness": "≤ 0.5"}
{"Variant description": "C11U C55G G63C G67C", "yeast fitness": "≤ 0.5"}
{"Variant description": "C24G A43C C46G U53G C61U", "yeast fitness": "≤ 0.5"}
{"Variant description": "C4U C31U C60A", "yeast fitness": "≤ 0.5"}
{"Variant description": "C31G C55G A65C", "yeast fitness": "≤ 0.5"}
{"Variant description": "C4G U13A G63A", "yeast fitness": "≤ 0.5"}
{"Variant description": "G56C U59A", "yeast fitness": 0.663}
{"Variant description": "U2A U3A G51A C61G", "yeast fitness": 0.513}
{"Variant description": "U2C A14C U19A", "yeast fitness": 0.595}
{"Variant description": "A40G A65G", "yeast fitness": 0.984}
{"Variant description": "C30U C31U A70C", "yeast fitness": 0.784}
{"Variant description": "C4U U7A A36U A65G", "yeast fitness": 0.535}
{"Variant description": "C49A G67C", "yeast fitness": 0.825}
{"Variant description": "G6A A14U C55A", "yeast fitness": 0.552}
{"Variant description": "U3C C31G U32C G38C C46G G48C", "yeast fitness": "≤ 0.5"}
{"Variant description": "C24A C31U C46U", "yeast fitness": 0.785}
{"Variant description": "C5U U8A A65U", "yeast fitness": "≤ 0.5"}
{"Variant description": "U26C U28C C46G C62G G67U", "yeast fitness": "≤ 0.5"}
{"Variant description": "C27A A69U", "yeast fitness": 0.846}
{"Variant description": "U2G C11U C30U C55A A65C", "yeast fitness": "≤ 0.5"}
{"Variant description": "A15U G17A C34G C46A", "yeast fitness": 0.569}
{"Variant description": "C27U C46G A69C", "yeast fitness": 0.757}
{"Variant description": "U3A A15U G48A A57G C61A", "yeast fitness": "≤ 0.5"}
{"Variant description": "G17C U19A C24G U26A C34U", "yeast fitness": "≤ 0.5"}
{"Variant description": "U2A A21G C24A", "yeast fitness": "≤ 0.5"}
{"Variant description": "A20G C34G G41C G52A", "yeast fitness": "≤ 0.5"}
{"Variant description": "A14G C27G C62U", "yeast fitness": "≤ 0.5"}
{"Variant description": "C27U A37U A65U", "yeast fitness": 0.591}
{"Variant description": "G10C C29G A40U C49G", "yeast fitness": "≤ 0.5"}
{"Variant description": "C24A A43G A70C", "yeast fitness": "≤ 0.5"}
{"Variant description": "C5U U7C A45C", "yeast fitness": 0.74}
{"Variant description": "A21G G44C G63C", "yeast fitness": "≤ 0.5"}
{"Variant description": "U3C C22U G48A", "yeast fitness": 0.955}
{"Variant description": "U16A G56A", "yeast fitness": 0.875}
{"Variant description": "C4A U7A C31A U54A", "yeast fitness": "≤ 0.5"}
{"Variant description": "G39C C55U", "yeast fitness": 0.572}
{"Variant description": "A15C G38A U54A A57U", "yeast fitness": "≤ 0.5"}
{"Variant description": "A15U A43U C55U C60A", "yeast fitness": 0.69}
{"Variant description": "U3C C27U C31U", "yeast fitness": 0.787}
{"Variant description": "U3A A36G C62U", "yeast fitness": 0.69}
{"Variant description": "U19A C24A C31G G68C", "yeast fitness": "≤ 0.5"}
{"Variant description": "C4U U8A C33U A36U", "yeast fitness": 0.545}
{"Variant description": "G9C G17C C27G U35A C49A", "yeast fitness": "≤ 0.5"}
{"Variant description": "C5G U7A A20C G68C", "yeast fitness": "≤ 0.5"}
{"Variant description": "C30U A43U U54A", "yeast fitness": 0.541}
{"Variant description": "G6A C46G U64A", "yeast fitness": 0.667}
{"Variant description": "A21U C55A", "yeast fitness": "≤ 0.5"}
{"Variant description": "A40U A42C C66A", "yeast fitness": "≤ 0.5"}
{"Variant description": "G10C G23A", "yeast fitness": 0.57}
{"Variant description": "G52C C61U", "yeast fitness": 0.66}
{"Variant description": "C31U G48C C66U", "yeast fitness": 0.741}
{"Variant description": "G50A U53A A57G G58A A69C", "yeast fitness": 0.657}
{"Variant description": "C11U U13G U19A C22G G25A A69U", "yeast fitness": "≤ 0.5"}
{"Variant description": "U8A G9C U47A G68C", "yeast fitness": "≤ 0.5"}
{"Variant description": "C11U U59A A69C", "yeast fitness": 0.537}
{"Variant description": "A15U G18A G58A", "yeast fitness": "≤ 0.5"}
{"Variant description": "G6C G10C C30U U35A", "yeast fitness": "≤ 0.5"}
{"Variant description": "C30U C61G A65C", "yeast fitness": "≤ 0.5"}
{"Variant description": "C22U G38C G48A", "yeast fitness": "≤ 0.5"}
{"Variant description": "A20G G23C G50A", "yeast fitness": "≤ 0.5"}
{"Variant description": "U8G C27A C61A G67A", "yeast fitness": "≤ 0.5"}
{"Variant description": "C5U A57U G63A", "yeast fitness": "≤ 0.5"}
{"Variant description": "A14U A15G G18A", "yeast fitness": "≤ 0.5"}
{"Variant description": "G6A G38A U47A C60G", "yeast fitness": "≤ 0.5"}
{"Variant description": "G6C A40G A42G A57C C66U", "yeast fitness": "≤ 0.5"}
{"Variant description": "A15G U26G C55U A69U A70C", "yeast fitness": "≤ 0.5"}
{"Variant description": "U8C G12A C29G U47C", "yeast fitness": "≤ 0.5"}
{"Variant description": "C30A A65U", "yeast fitness": 0.802}
{"Variant description": "C22U U53C C61G G67A A69C", "yeast fitness": "≤ 0.5"}
{"Variant description": "G9A U28C G44A G68C", "yeast fitness": "≤ 0.5"}
{"Variant description": "C11U A14C A15G U26A C34A G63A", "yeast fitness": "≤ 0.5"}
{"Variant description": "G44U A70C", "yeast fitness": 0.813}
{"Variant description": "A14U U32C A40C G67A", "yeast fitness": 0.529}
{"Variant description": "U32A A40U", "yeast fitness": 0.774}
{"Variant description": "U16G G23C U35C", "yeast fitness": 0.655}
{"Variant description": "U2G C27U A36G C62A", "yeast fitness": "≤ 0.5"}

Hello, the source for this data is the RNAGym collection of RNA variant scans (doi:10.1126/science.aae0568), in case you need it.
